Entries and their measured kon follow.
# system_under_test: T1, mouse programmed cell death protein 1 Fc fusion protein (mPD-1-Fc), mPD-1 C60S (aa 25-167) (Mus musculus, UniProt Q02242, stabilised)
# T1 construct: not cleaved; source: Expi293F, purified (Protein A, SEC; dimeric fraction); not shown: Fc (human), C-terminal, kept
# test: SPR; Carterra LSA; Fab from the ammonium sulfate precipitate of the culture supernatant immobilised on a NiHC200M chip; hPD-1 (1-1024 nM) or mPD-1-Fc (4-1024 nM) as analyte, fourfold dilution series, no regeneration; HBS-EP pH 7.4, 25 °C; medians over the spots of a construct, KD = koff/kon
# condition_summary: one partner purified

- binder: "toripalimab Fab L.V99P (Fab, V domains shown, as the heavy chain of Sm3; light chain of Sm3 with this change; numbers count from the chain's first residue; source: Brevibacillus, culture supernatant (ammonium sulfate precipitate); not shown: 6xHis, C-terminal, kept; 6xHN, C-terminal, kept) VH: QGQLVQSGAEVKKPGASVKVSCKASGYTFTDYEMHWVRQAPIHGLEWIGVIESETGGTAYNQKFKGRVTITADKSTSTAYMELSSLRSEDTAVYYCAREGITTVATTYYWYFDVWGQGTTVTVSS VL: DVVMTQSPLSLPVTLGQPASISCRSSQSIVHSNGNTYLEWYLQKPGQSPQLLIYKVSNRFSGVPDRFSGSGSGTDFTLKISRVEAEDVGVYYCFQGSHPPLTFGQGTKLEIK"
  kon (M⁻¹ s⁻¹): 28300
- binder: "toripalimab Fab H.E54A (Fab, V domains shown, heavy chain of Sm3 with this change; numbers count from the chain's first residue; as the light chain of Sm3; source: Brevibacillus, culture supernatant (ammonium sulfate precipitate); not shown: 6xHis, C-terminal, kept; 6xHN, C-terminal, kept) VH: QGQLVQSGAEVKKPGASVKVSCKASGYTFTDYEMHWVRQAPIHGLEWIGVIESATGGTAYNQKFKGRVTITADKSTSTAYMELSSLRSEDTAVYYCAREGITTVATTYYWYFDVWGQGTTVTVSS VL: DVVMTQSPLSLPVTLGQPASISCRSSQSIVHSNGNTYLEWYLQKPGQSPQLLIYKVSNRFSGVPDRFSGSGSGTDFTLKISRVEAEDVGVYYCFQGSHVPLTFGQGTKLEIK"
  kon (M⁻¹ s⁻¹): 38300
- binder: "toripalimab Fab L.Q27Y (Fab, V domains shown, as the heavy chain of Sm3; light chain of Sm3 with this change; numbers count from the chain's first residue; source: Brevibacillus, culture supernatant (ammonium sulfate precipitate); not shown: 6xHis, C-terminal, kept; 6xHN, C-terminal, kept) VH: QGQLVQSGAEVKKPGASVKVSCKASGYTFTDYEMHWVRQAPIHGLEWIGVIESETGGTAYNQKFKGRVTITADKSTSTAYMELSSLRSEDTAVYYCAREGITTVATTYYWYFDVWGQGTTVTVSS VL: DVVMTQSPLSLPVTLGQPASISCRSSYSIVHSNGNTYLEWYLQKPGQSPQLLIYKVSNRFSGVPDRFSGSGSGTDFTLKISRVEAEDVGVYYCFQGSHVPLTFGQGTKLEIK"
  kon (M⁻¹ s⁻¹): 56500

src = paper PMC10663500
